Assay: Pharmacokinetics / bioavailability after oral disintegrating tablet dose
Type: in vivo, male Beagle dogs
Details: male, Beagle, dog, plasma, oral, 50.75 mg/dose, 1 hr postdose; N=4; ODT 50.75 mg/dose; male Beagle dogs; read-out: Compound A Plasma Concentration, Mean
Description: The purpose of this study was to evaluate the bioavailability of Compound A following administration of the ODT formulation. Animals were administered Compound A, as described in the following table. Dosing occurred at 50.75 mg/dose. […] Pharmacokinetic concentration-time data for Compound A was analyzed using non-compartmental methods (Phoenix® WinNonlin® Version 8.1) with nominal sampling times and dosages. […] Additional parameters may have been calculated as appropriate. […]
Measured endpoint: concentration at 1 h (ng/mL)
Give bare numbers, in ng/mL.

Give its concentration at 1 h value. Item: CSc1nc(N)c2ncn([C@H]3[C@H](O)[C@H](O)[C@]4(CO)C[C@H]34)c2n1
2190

---

assay: Pharmacokinetics / bioavailability after oral disintegrating tablet dose; type: in vivo, male Beagle dogs; conditions: male, Beagle, dog, plasma, oral, 50.75 mg/dose, 4 hr postdose; N=4; ODT 50.75 mg/dose; male Beagle dogs; read-out: Compound A Plasma Concentration, Mean
Measured endpoint: concentration at 4 h

Entry CSc1nc(N)c2ncn([C@H]3[C@H](O)[C@H](O)[C@]4(CO)C[C@H]34)c2n1 : reported concentration at 4 h = ?
1010 ng/mL

---

test: Pharmacokinetics / bioavailability after oral disintegrating tablet dose; type: in vivo, male Beagle dogs; settings: male, Beagle, dog, plasma, oral, 50.75 mg/dose, 24 hr postdose; N=4; ODT 50.75 mg/dose; male Beagle dogs; read-out: Compound A Plasma Concentration, Mean
Measured endpoint: concentration at 24 h
Record the result as number plus unit.

Using the record for CSc1nc(N)c2ncn([C@H]3[C@H](O)[C@H](O)[C@]4(CO)C[C@H]34)c2n1 [Compound A] , report its concentration at 24 h.
82 ng/mL

---

experiment: Pharmacokinetics / bioavailability after oral disintegrating tablet dose; assay type: in vivo, male Beagle dogs; conditions: male, Beagle, dog, plasma, po, 50.75 mg, single ODT dose 50.75 mg/dose; male Beagle dogs; read-out: Tmax, individual animals
Measured endpoint: Tmax (h)
Numbers only, in h.

What does the record list as Tmax for CSc1nc(N)c2ncn([C@H]3[C@H](O)[C@H](O)[C@]4(CO)C[C@H]34)c2n1 ?
1

---

assay: Pharmacokinetics / bioavailability after oral disintegrating tablet dose; type: in vivo, male Beagle dogs; details: male, Beagle, dog, plasma, po, 50.75 mg, single ODT dose 50.75 mg/dose; male Beagle dogs; read-out: AUCinf, individual animals
Measured endpoint: AUC(0-inf) (ng·h/mL)
One number for each entry, in ng·h/mL.

Item CSc1nc(N)c2ncn([C@H]3[C@H](O)[C@H](O)[C@]4(CO)C[C@H]34)c2n1 [Compound A] has what recorded AUC(0-inf)?
9200

---

assay: Pharmacokinetics / bioavailability after oral disintegrating tablet dose; type: in vivo, male Beagle dogs; settings: male, Beagle, dog, plasma, oral, 50.75 mg/dose, 4 hr postdose; ODT 50.75 mg/dose; male Beagle dogs; read-out: Compound A Plasma Concentration, individual animals
Measured endpoint: concentration at 4 h
The answer consists of two parts: a number and, after it, its unit.

Given the compound CSc1nc(N)c2ncn([C@H]3[C@H](O)[C@H](O)[C@]4(CO)C[C@H]34)c2n1 [Compound A] , what is its reported concentration at 4 h?
964 ng/mL

---

assay: Pharmacokinetics / bioavailability after oral disintegrating tablet dose; assay type: in vivo, male Beagle dogs; settings: male, Beagle, dog, plasma, po, 50.75 mg, N=4; single ODT dose 50.75 mg/dose; male Beagle dogs; read-out: AUC0-24, Mean
Measured endpoint: AUC(0-t) (ng·h/mL)
Answers are plain numbers, in ng·h/mL.

Reported AUC(0-t) for CSc1nc(N)c2ncn([C@H]3[C@H](O)[C@H](O)[C@]4(CO)C[C@H]34)c2n1 : what is it?
12200

---

assay: Pharmacokinetics / bioavailability after oral disintegrating tablet dose; type: in vivo, male Beagle dogs; settings: male, Beagle, dog, plasma, oral, 50.75 mg/dose, 2 hr postdose; N=4; ODT 50.75 mg/dose; male Beagle dogs; read-out: Compound A Plasma Concentration, Mean
Measured endpoint: concentration at 2 h (ng/mL)
Give bare numbers, in ng/mL.

I am curious: what concentration at 2 h value has been reported for CSc1nc(N)c2ncn([C@H]3[C@H](O)[C@H](O)[C@]4(CO)C[C@H]34)c2n1 ?
1810

---

assay: Pharmacokinetics / bioavailability after oral disintegrating tablet dose; assay type: in vivo, male Beagle dogs; details: male, Beagle, dog, plasma, oral, 50.75 mg/dose, 8 hr postdose; N=4; ODT 50.75 mg/dose; male Beagle dogs; read-out: Compound A Plasma Concentration, Mean
Measured endpoint: concentration at 8 h (µg/mL)
Numbers only, in µg/mL.

Consider the compound CSc1nc(N)c2ncn([C@H]3[C@H](O)[C@H](O)[C@]4(CO)C[C@H]34)c2n1 [Compound A] and give its measured concentration at 8 h.
0.354

---

experiment: Pharmacokinetics / bioavailability after oral disintegrating tablet dose; assay type: in vivo, male Beagle dogs; conditions: male, Beagle, dog, plasma, oral, 50.75 mg/dose, 0.25 hr postdose; N=4; ODT 50.75 mg/dose; male Beagle dogs; read-out: Compound A Plasma Concentration, Mean
Measured endpoint: concentration at 0.25 h (ng/mL)
One number for each entry, in ng/mL.

Given the entry CSc1nc(N)c2ncn([C@H]3[C@H](O)[C@H](O)[C@]4(CO)C[C@H]34)c2n1 [Compound A] , report its measured concentration at 0.25 h.
283

---

assay: Pharmacokinetics / bioavailability after oral disintegrating tablet dose; format: in vivo, male Beagle dogs; conditions: male, Beagle, dog, plasma, po, 50.75 mg, single ODT dose 50.75 mg/dose; male Beagle dogs; read-out: AUC0-24, individual animals
Measured endpoint: AUC(0-t) (ng·h/mL)
One number for each entry, in ng·h/mL.

If you can, please state the reported AUC(0-t) value of CSc1nc(N)c2ncn([C@H]3[C@H](O)[C@H](O)[C@]4(CO)C[C@H]34)c2n1 [Compound A] .
9020

---

test: Pharmacokinetics / bioavailability after oral disintegrating tablet dose; format: in vivo, male Beagle dogs; conditions: male, Beagle, dog, plasma, oral, 50.75 mg/dose, 1 hr postdose; ODT 50.75 mg/dose; male Beagle dogs; read-out: Compound A Plasma Concentration, individual animals
Measured endpoint: concentration at 1 h (ng/mL)
One number for each entry, in ng/mL.

Query: concentration at 1 h; subject: CSc1nc(N)c2ncn([C@H]3[C@H](O)[C@H](O)[C@]4(CO)C[C@H]34)c2n1 [Compound A]
2080

---

Test: Pharmacokinetics / bioavailability after oral disintegrating tablet dose
Assay type: in vivo, male Beagle dogs
Conditions: male, Beagle, dog, plasma, po, 50.75 mg, N=4; single ODT dose 50.75 mg/dose; male Beagle dogs; read-out: Tmax, Mean
Description: The purpose of this study was to evaluate the bioavailability of Compound A following administration of the ODT formulation. Animals were administered Compound A, as described in the following table. Dosing occurred at 50.75 mg/dose. […] Pharmacokinetic concentration-time data for Compound A was analyzed using non-compartmental methods (Phoenix® WinNonlin® Version 8.1) with nominal sampling times and dosages. […] Additional parameters may have been calculated as appropriate. […]
Measured endpoint: Tmax (min)
Numbers only, in min.

For the compound CSc1nc(N)c2ncn([C@H]3[C@H](O)[C@H](O)[C@]4(CO)C[C@H]34)c2n1 , what Tmax is on record?
52.8

---

test: Pharmacokinetics / bioavailability after oral disintegrating tablet dose; type: in vivo, male Beagle dogs; conditions: male, Beagle, dog, plasma, oral, 50.75 mg/dose, 8 hr postdose; ODT 50.75 mg/dose; male Beagle dogs; read-out: Compound A Plasma Concentration, individual animals
Measured endpoint: concentration at 8 h (ng/mL)
Give bare numbers, in ng/mL.

Please report the recorded concentration at 8 h for CSc1nc(N)c2ncn([C@H]3[C@H](O)[C@H](O)[C@]4(CO)C[C@H]34)c2n1 .
434

The measurements presented in this section are drawn from patent US20260151345A1.
